Where do the numbers come from? From PubChem BioAssay (NCI).

- Tested on: SK-MEL-5 melanoma
- ASSAY REMARKS: NCI-60 one-dose screen, 48 h (100 = growth as untreated, 0 = no growth, -100 = all killed)
- MEASUREMENT CONDITIONS: 10 µM unless noted
About 83,000 compounds went through this panel and 20% of them were active in at least one assay; those are over-represented in the sample as a whole.
Would you mind telling me the reported growth of each entry?
Give bare numbers, in %.

Below are worked cases with known answers.
- COMPOUND: "COc1cc(NC(C)CCCN)c2nccc(C)c2c1OC (stereo not given)"
  NUMBER: 86.8
- COMPOUND: "CCC(C)(C)c1ccc(OCCCCCCN2CCNCC2)cc1"
  NUMBER: 34.2
- COMPOUND: "CCCCCCCCCCCCCCCCC(=O)O.CCCCCCCCCCCCCCCCCC(=O)O.CCCCCCCCCCCCCCCCCC(=O)O.CCCCCCCCCCCCCCCCCC(=O)O.CCCCCCCCCCCCCCCCCC(=O)O.CO[CH-]OC12COC1CC(O)C1(C)C(O)C(OC(C)O)C3=C(C)C(OC(=O)C(O)C([NH-])c4ccccc4)CC(O)(C(OC(=O)c4ccccc4)C21)C3(C)C.[Cu+].[Zn].[Zn].[Zn].[Zn].[Zn] (stereo not given)"
  NUMBER: 38.4
- COMPOUND: "Cc1ccc(NCc2cn(-c3ccc(C(=O)O)cc3)nc2-c2ccc(C(=O)O)cc2)cc1"
  NUMBER: 108
- COMPOUND: "CCCCCC(=C/c1ccccc1)/C=N/N=C(N)N"
  NUMBER: -91.5
- COMPOUND: "Cc1c(CN(C)C)cc(C(C)C)cc1C(C)C"
  NUMBER: 104
- COMPOUND: "CCC(C)CC(N)O (stereo not given)"
  NUMBER: 99.9
- COMPOUND: "C[C@]12C=CC(=O)C=C1[C@@H](F)C[C@@H]1[C@@H]2[C@@H](O)C[C@@]2(C)[C@H]1CC[C@]2(O)C(=O)CO"
  NUMBER: 120
- COMPOUND: "O=C(O)c1ccc(Br)nc1"
  NUMBER: 102
- COMPOUND: "Oc1ccccc1\\C=N/N=C/C=C/c1ccccc1"
  NUMBER: 97.4

Below is a list of compounds. For each, state its recorded growth.
1. CCOc1ccc2nc3ccc(Cl)cc3nc2c1
2. BrCCCOc1ccc(Oc2ccc(OCCCBr)cc2)cc1
3. NNC(=O)CNc1ccc2ccccc2c1
4. CC1Cc2cc(F)ccc2-n2cccc21 (stereo not given)
5. O=c1oc2ccc3ccccc3c2cc1-c1ccnc2[nH]c(=S)[nH]c(=O)c12
6. CC(C)(C)C(=O)CCCCCCCC/C=C/CCCC(O)c1ccco1 (stereo not given)

OUT:
1. 67.1
2. 97
3. 101
4. 109
5. 97.8
6. 107

Please give growth, item by item, for the list that follows.
1. CC[C@H](Nc1ncnc2nc[nH]c12)c1nc2cccc(NCc3ccc(C(=O)NO)nc3)c2c(=O)n1-c1ccccc1
2. Cc1cc2c(-c3nc4ccccc4[nH]3)c(O)c(O)cc2c(O)c1-c1c(C)cc2c(-c3nc4ccccc4[nH]3)c(O)c(O)cc2c1O
3. CC(=O)/C(=C\c1c(-c2ccccc2)[nH]c2ccccc12)S(=O)(=O)c1ccccc1
4. CCOC(=O)CSSCC(=O)OCC

OUT:
[80.2, -8.04, 9.11, 99.8]

---

- System: SF-268 CNS
- ASSAY REMARKS: NCI-60 one-dose screen, 48 h (100 = growth as untreated, 0 = no growth, -100 = all killed)
- MEASUREMENT CONDITIONS: 10 µM unless noted
This is part of a sample that, as a whole, favours compounds with a hit. Of some 83,000 tested, about 20% had one in any assay.
Classification field: T = growth at or over 70%; F = growth under 70%.

Look over these answered cases.
- COMPOUND: "CCOC(=O)C(C)C(C)(O)c1ccccc1 (stereo not given)"
  LABEL VALUE: "T"
- COMPOUND: "CCCCCc1ccnc(CC(=O)c2ccc(OC)cc2)c1"
  LABEL VALUE: "T"
- COMPOUND: "Cc1ccnc2c(NC(C)CCCN)cc(O)c(O)c12 (stereo not given)"
  LABEL VALUE: "T"
- COMPOUND: "COc1cc2c(c(OC)c1OC)C(=O)CC(c1cccc(C(=O)Nc3cccc(Br)c3)c1)O2 (stereo not given)"
  LABEL VALUE: "T"
- COMPOUND: "N=C(N)c1ccc(-c2ccc(-c3ccc(Cl)cc3)s2)s1"
  LABEL VALUE: "F"
- COMPOUND: "CCC(C)C1NC(=O)C(CC(C)C)NC(=O)C(C)NC(=O)C(C(C)C)NC(=O)C(CCCCN)NC(=O)C(CC(C)C)NC(=O)C(C(C)C)NC(=O)[C@H](C)NC(=O)C(C(C)CC)NC(=O)C(CCCN=C(N)N)NC(=O)C(CCCCN)NC(=O)C(CCCN=C(N)N)NC(=O)C(CCCCN)NC(=O)C([C@H](C)CC)NC(=O)C(CCCCN)NC1=O (stereo not given in full)"
  LABEL VALUE: "F"

IN: Test whether the compound CCn1cc(C(=O)O)c(=O)c2cc(F)c(N3CCN(S(=O)(=O)c4ccc(Cl)cc4)CC3)cc21 records growth of 70% or higher.
OUT: F

IN: Quick check, growth >= 70%? CC(=O)Nc1ccc(S(=O)(=O)Cl)cc1
OUT: T

IN: # check: growth of O=C(O)c1ccc(-c2nn(-c3ccc(C(=O)O)cc3)cc2CNc2ccc(Br)cc2)cc1 is greater than or equal to 70%
OUT: T

IN: Threshold query (growth >= 70%) on c1ccc2[nH]c(-c3ccc(OCCCCCOc4ccc(-c5nc6ccccc6[nH]5)cc4)cc3)nc2c1
OUT: F

---

Would you kindly list growth for each of these molecules?
- Tested on: NCI/ADR-RES ovarian
- ASSAY REMARKS: NCI-60 one-dose screen, 48 h (100 = growth as untreated, 0 = no growth, -100 = all killed)
- MEASUREMENT CONDITIONS: 10 µM unless noted
The panel holds about 83,000 compounds, 20% with a hit somewhere; the sample as a whole holds those more often. Active and inactive are the calls of the source. How the source made its calls: active means growth percent below 10; inactive means the rest.

Study these solved cases before continuing.
- MOLECULE: "O=C(CN1C(=O)NC(c2ccccc2)(c2ccccc2)C1=O)c1ccc(N2CCCC2)cc1"
  growth: "67.2% (inactive)"
- MOLECULE: "CCOC(=O)c1c(C)oc2ncnc(Nc3ccc(NC(=O)Nc4ccc(CC)cc4)cc3)c12"
  growth: "97.2% (inactive)"
- MOLECULE: "Cc1nc(NC(=S)Nc2ccc(F)cc2)sc1C(=O)NNC(=S)Nc1ccc(F)cc1"
  growth: "78.1% (inactive)"

Please state growth for every molecule in the list that follows.
1. COC(=O)c1cc(=O)nc(N/N=C/c2ccccc2O)s1
2. CCCCCCN(CCCCCC)CCC(=O)Nc1ccc(S(=O)(=O)c2ccc(NC(=O)CCN(CCCCCC)CCCCCC)cc2)cc1
3. O=C1Nc2ccccc2/C1=C/c1cn(CC(O)Cn2cc(/C=C3\C(=O)Nc4ccccc43)c3ccccc32)c2ccccc12 (stereo not drawn)
4. CC1(C)CC(=O)C2=C(C1)Oc1nc(N)c(C#N)c(N)c1C2c1ccc(F)cc1 (stereo not drawn)
5. C/C=C/C/C=C/[C@H](C)C[C@H](O)[C@@H]1C[C@@H]2O[C@H]2/C=C/[C@@H]2OC(C)(C)O[C@H]2/C=C/C[C@H](C)CC(=O)O1

OUT:
89.3% (inactive)
83.8% (inactive)
31.8% (inactive)
122% (inactive)
7.52% (active)

---

- System: K-562 leukemia
- ASSAY REMARKS: NCI-60 one-dose screen, 48 h
- MEASUREMENT CONDITIONS: 10 µM unless noted
This is part of a sample that, as a whole, favours compounds with a hit. Of some 83,000 tested, about 20% had one in any assay. Calls of active or inactive are those of the source. Rule for the calls: active = growth percent below 10; inactive = the rest.
Just give me one of these, please: y (active), n (inactive)

- COMPOUND: "COc1cc(N2C(=O)C=CC2=O)ccc1N1C(=O)C=CC1=O"
  LABEL VALUE: "n"
- COMPOUND: "COc1nc(OC)nc(-c2cc(-c3cc(OC)c(OC)c(OC)c3)no2)n1"
  LABEL VALUE: "n"
- COMPOUND: "COc1cc2c(/C=C3\\C(=O)Nc4ccc(Br)cc43)c(Cl)n(C)c2cc1C"
  LABEL VALUE: "y"
- COMPOUND: "CCCCCCCCCCCCCCCCCC1=NCCN1CS(=O)(=O)O"
  LABEL VALUE: "y"

Now consider the entry below.
IN: Record request — test call for O=C(Nc1ccccc1)Nc1ccc(Nc2ncnc3sc4c(c23)CCCC4)cc1
OUT: n
